Molecular target: T1, rat APJ receptor (rat, UniProt Q9JHG3 1-377)
T1 sequence (looked up): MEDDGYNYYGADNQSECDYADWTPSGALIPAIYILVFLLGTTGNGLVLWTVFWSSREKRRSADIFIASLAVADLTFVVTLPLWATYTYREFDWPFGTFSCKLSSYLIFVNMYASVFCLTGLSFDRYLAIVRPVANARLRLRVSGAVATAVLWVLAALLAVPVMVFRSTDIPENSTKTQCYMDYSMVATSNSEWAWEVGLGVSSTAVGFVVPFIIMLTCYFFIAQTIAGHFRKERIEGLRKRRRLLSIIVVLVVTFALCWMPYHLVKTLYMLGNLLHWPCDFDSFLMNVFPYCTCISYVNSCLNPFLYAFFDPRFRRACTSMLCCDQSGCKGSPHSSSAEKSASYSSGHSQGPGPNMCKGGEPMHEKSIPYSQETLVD
Experiment: cell-based or functional assay
Starred links: 1 amine or outer side, 2 acyl side, 3 side chain; linkers in the order of their positions; H or OH if unused. Non-standard residues stand in square brackets, D forms with d. *: point of attachment. Phe(4-Cl) = N[C@@H](Cc1ccc(Cl)cc1)C(=O)O; γGlu = O=C(O)[C@H](CCC(=O)[*:2])N[*:1]; Tridecanoyl = CCCCCCCCCCCCC(=O)*; Nle = CCCC[C@H](N)C(=O)O; AEEA = NCCOCCOCC(=O)O
metric name: EC50 Rat APJ Receptor (GTPγS assay) (pM)
Return type: number; implicit unit pM.

q: Need EC50 Rat APJ Receptor (GTPγS assay) of Tridecanoyl-[γGlu][AEEA][AEEA]QRPQLSHKGP[Nle]P[Phe(4-Cl)]-OH (SMILES CCCCCCCCCCCCC(=O)N[C@@H](CCC(=O)NCCOCCOCC(=O)NCCOCCOCC(=O)N[C@@H](CCC(N)=O)C(=O)N[C@@H](CCCNC(=N)N)C(=O)N1CCC[C@H]1C(=O)N[C@@H](CCC(N)=O)C(=O)N[C@@H](CC(C)C)C(=O)N[C@@H](CO)C(=O)N[C@@H](Cc1c[nH]cn1)C(=O)N[C@@H](CCCCN)C(=O)NCC(=O)N1CCC[C@H]1C(=O)N[C@@H](CCCC)C(=O)N1CCC[C@H]1C(=O)N[C@@H](Cc1ccc(Cl)cc1)C(=O)O)C(=O)O) [Apelin polypeptide SEQ ID NO: 465] , thanks.
a: 174
